# measured on: human Nav 1.8 (Homo sapiens, UniProt Q9Y5Y9)
# Sequence (Q9Y5Y9 whole entry, looked up, the tested form may be a part): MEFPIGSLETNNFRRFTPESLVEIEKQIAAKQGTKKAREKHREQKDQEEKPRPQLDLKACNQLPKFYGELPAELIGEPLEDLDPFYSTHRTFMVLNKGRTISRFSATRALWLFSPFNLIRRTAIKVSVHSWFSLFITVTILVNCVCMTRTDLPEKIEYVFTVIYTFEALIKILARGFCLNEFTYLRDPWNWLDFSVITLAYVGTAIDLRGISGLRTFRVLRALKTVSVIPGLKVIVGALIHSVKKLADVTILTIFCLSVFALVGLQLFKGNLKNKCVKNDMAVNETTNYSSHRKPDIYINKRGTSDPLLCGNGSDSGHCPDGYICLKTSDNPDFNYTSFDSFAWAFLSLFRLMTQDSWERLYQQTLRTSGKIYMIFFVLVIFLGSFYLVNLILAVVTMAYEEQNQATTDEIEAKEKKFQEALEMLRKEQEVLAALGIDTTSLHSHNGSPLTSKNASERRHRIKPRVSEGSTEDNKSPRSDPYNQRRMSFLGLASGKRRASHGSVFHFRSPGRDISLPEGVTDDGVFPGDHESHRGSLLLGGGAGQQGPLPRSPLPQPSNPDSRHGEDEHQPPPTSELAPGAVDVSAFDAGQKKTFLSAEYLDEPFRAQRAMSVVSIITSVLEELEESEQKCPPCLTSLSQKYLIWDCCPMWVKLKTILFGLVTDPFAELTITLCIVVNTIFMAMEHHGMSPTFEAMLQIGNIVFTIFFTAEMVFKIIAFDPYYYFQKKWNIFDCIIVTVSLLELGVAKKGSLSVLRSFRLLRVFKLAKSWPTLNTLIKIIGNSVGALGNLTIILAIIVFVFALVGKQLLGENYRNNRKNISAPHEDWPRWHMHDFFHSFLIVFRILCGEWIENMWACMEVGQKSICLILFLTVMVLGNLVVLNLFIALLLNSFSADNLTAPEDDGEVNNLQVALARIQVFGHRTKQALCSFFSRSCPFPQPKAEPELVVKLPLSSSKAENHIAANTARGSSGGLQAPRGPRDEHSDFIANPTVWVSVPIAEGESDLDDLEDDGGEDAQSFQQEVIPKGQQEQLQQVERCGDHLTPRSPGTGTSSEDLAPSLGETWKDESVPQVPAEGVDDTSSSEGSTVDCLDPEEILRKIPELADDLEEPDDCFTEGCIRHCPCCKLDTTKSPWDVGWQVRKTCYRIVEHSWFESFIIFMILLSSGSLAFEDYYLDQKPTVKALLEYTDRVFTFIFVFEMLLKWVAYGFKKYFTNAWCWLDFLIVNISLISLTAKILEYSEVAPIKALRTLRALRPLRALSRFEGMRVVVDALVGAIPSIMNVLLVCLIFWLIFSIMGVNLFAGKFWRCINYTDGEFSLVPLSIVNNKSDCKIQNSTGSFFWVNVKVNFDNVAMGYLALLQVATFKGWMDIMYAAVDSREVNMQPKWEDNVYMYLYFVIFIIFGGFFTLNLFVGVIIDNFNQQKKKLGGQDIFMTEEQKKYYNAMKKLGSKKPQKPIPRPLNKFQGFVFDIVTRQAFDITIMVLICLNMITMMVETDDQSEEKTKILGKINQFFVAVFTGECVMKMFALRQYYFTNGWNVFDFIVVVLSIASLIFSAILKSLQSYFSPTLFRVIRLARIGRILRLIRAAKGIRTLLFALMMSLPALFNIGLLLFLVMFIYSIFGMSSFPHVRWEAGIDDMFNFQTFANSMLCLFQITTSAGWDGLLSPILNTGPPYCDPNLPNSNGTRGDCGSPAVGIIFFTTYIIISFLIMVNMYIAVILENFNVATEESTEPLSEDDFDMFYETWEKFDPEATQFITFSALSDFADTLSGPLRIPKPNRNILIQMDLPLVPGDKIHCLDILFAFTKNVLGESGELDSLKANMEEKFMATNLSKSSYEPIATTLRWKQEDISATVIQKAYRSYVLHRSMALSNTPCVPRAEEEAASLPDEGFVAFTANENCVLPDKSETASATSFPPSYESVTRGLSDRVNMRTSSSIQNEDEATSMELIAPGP
# assay summary: E-VIPR assay detecting and measuring Nav inhibition (HEK cells expressing truncated human Nav 1.8)
# Type: cell-based
# cond: in the Presence of Human Serum in the E-VIPR Assay; read-out: IC50
measurement name: IC50

molecule | value
COc1cc(F)ccc1[C@@H]1[C@@H](C)[C@](C)(C(F)(F)F)O[C@H]1C(=O)Nc1ccnc(C(N)=O)c1 (single isomer, unassigned) | 100 to 1000 nM
COc1c([C@H]2C[C@@H](C(F)(F)F)O[C@@H]2C(=O)Nc2ccnc(C(N)=O)c2)ccc(F)c1C (single isomer, unassigned) | > 1000 nM
COc1cc(F)ccc1[C@H]1C[C@@](C)(C(F)(F)F)O[C@@H]1C(=O)Nc1ccnc(C(N)=O)c1 (stereo in doubt) | > 1000 nM
COc1c([C@@H]2C[C@@](C)(C(F)(F)F)O[C@H]2C(=O)Nc2ccnc(C(N)=O)c2)ccc(F)c1Cl | 10 to 100 nM
CNC(=O)c1cc(NC(=O)[C@@H]2O[C@](C)(C(F)(F)F)C[C@H]2c2ccc(F)c(Cl)c2OC)ccn1 (single isomer, unassigned) | > 1000 nM
COc1c([C@@H]2C[C@](C)(C(F)(F)F)O[C@H]2C(=O)Nc2ccc(F)c(C(N)=O)c2)ccc(F)c1F (single isomer, unassigned) | 10 to 100 nM
COc1c([C@@H]2C[C@](C)(CC(F)(F)F)O[C@H]2C(=O)Nc2ccnc(C(N)=O)c2)ccc(F)c1F (single isomer, unassigned) | 100 to 1000 nM
C[C@@H]1[C@H](c2ccc(F)cc2OC(F)F)[C@@H](C(=O)Nc2ccnc(C(N)=O)c2)O[C@]1(C)C(F)(F)F (stereo in doubt) | 10 to 100 nM
CCOc1c([C@@H]2[C@@H](C(=O)Nc3ccnc(C(N)=O)c3)O[C@](C)(C(F)(F)F)[C@@H]2C)ccc(F)c1F | > 1000 nM
Cc1cnc(C(N)=O)cc1NC(=O)[C@H]1O[C@](C)(C(F)(F)F)[C@H](C)[C@@H]1c1ccc(F)c(F)c1OC(F)F (stereo in doubt) | 10 to 100 nM
CC[C@H]1[C@@H](c2ccc(F)c(F)c2OC)[C@H](C(=O)Nc2ccnc(C(N)=O)c2)O[C@@]1(C)C(F)(F)F (single isomer, unassigned) [Compound 93] | < 10 nM
COc1c([C@@H]2C[C@](C)(C(F)(F)F)O[C@H]2C(=O)Nc2ccnc(C(N)=O)c2)ccc(F)c1F (stereo in doubt) | 10 to 100 nM
